System: Enterococcus faecalis
experimentSummary: Antimicrobial activity against Enterococcus faecalis assessed as bacterial growth at 10.9 ug/ml after 20 hrs by microtiter plate assay
Assay type: functional
Criterion: Activity strictly less than 40%. Met: satisfied. Not met: not satisfied.

molecule	assignedLabel
COc1ccc(C)cc1C1=C(Br)C(=O)N(CC(C)C)C1(O)Cc1ccccc1Cl (stereo not drawn)	not satisfied
COc1ccc(Br)cc1C1=C(Br)C(=O)N(CC(C)C)/C1=C/c1ccc(Br)cc1	satisfied
COc1ccccc1C1=C(Br)C(=O)N(CC(C)C)/C1=C\c1ccc(C(F)(F)F)cc1	satisfied
COc1ccc(Br)cc1C1=C(Br)C(=O)N(CC(C)C)C1(O)Cc1ccc(Br)cc1 (stereo not drawn)	satisfied
COc1ccccc1C1=C(Br)C(=O)N(CC(C)C)C1(O)Cc1ccc(C(F)(F)F)cc1 (stereo not drawn)	satisfied
COc1ccc(Cl)cc1C1=C(Br)C(=O)N(CC(C)C)/C1=C/c1ccccc1Br	not satisfied
COc1cccc(/C=C2\C(c3cc(Cl)ccc3OC)=C(Br)C(=O)N2CC(C)C)c1	satisfied
COc1ccc(C)cc1C1=C(Br)C(=O)N(CC(C)C)/C1=C/c1cccc(Cl)c1	satisfied
COc1ccc(Br)cc1C1=C(Br)C(=O)N(CC(C)C)/C1=C/c1cccc(Cl)c1	not satisfied
COc1ccc(Cl)cc1C1=C(Br)C(=O)N(CC(C)C)C1(O)Cc1ccccc1Br (stereo not drawn)	satisfied
COc1ccc(C)cc1C1=C(Br)C(=O)N(CC(C)C)C1(O)Cc1cccc(Cl)c1 (stereo not drawn)	satisfied
COc1ccc(Cl)cc1C1=C(Br)C(=O)N(CC(C)C)/C1=C\c1ccccc1Br	not satisfied
COc1ccc(Cl)cc1C1=C(Br)C(=O)O/C1=C\c1ccccc1Br	satisfied
COc1ccc(Br)cc1C1=C(Br)C(=O)O/C1=C\c1ccc(Br)cc1	satisfied
COc1ccc(C)cc1C1=C(Br)C(=O)N(CC(C)C)/C1=C\c1ccccc1Cl	not satisfied
COc1ccc(C)cc1C1=C(Br)C(=O)O/C1=C\c1ccccc1Cl	satisfied
COc1ccc(C)cc1C1=C(Br)C(=O)N(CC(C)C)/C1=C\c1cccc(Cl)c1	satisfied

* * *

Test system: Enterococcus faecalis
experimentSummary: Antimicrobial activity against Enterococcus faecalis assessed as inhibition of biofilm formation after 20 hrs by crystal violet staining analysis
Format: functional, organism-based
experimentalEndpoint: IC50

molecule	resultValue
COc1ccccc1C1=C(Br)C(=O)N(CC(C)C)/C1=C/c1ccc(C(F)(F)F)cc1	2.96 mg/L
COc1ccc(Br)cc1C1=C(Br)C(=O)O/C1=C\c1ccc(Br)cc1	18.7 mg/L
COc1ccc(C)cc1C1=C(Br)C(=O)N(CC(C)C)/C1=C/c1cccc(Cl)c1	59.3 mg/L
COc1ccc(C)cc1C1=C(Br)C(=O)N(CC(C)C)C1(O)Cc1cccc(Cl)c1 (stereo unspecified)	> 87.5 mg/L
COc1ccc(Br)cc1C1=C(Br)C(=O)N(CC(C)C)/C1=C/c1ccc(Br)cc1	3.35 mg/L
COc1ccc(Br)cc1C1=C(Br)C(=O)N(CC(C)C)C1(O)Cc1cccc(Cl)c1 (stereo unspecified)	> 87.5 mg/L
